Recorded measurements of pIC50, one per entry
Target: CDK4 (Homo sapiens (Human), UniProt P11802)
Sequence (P11802 whole entry): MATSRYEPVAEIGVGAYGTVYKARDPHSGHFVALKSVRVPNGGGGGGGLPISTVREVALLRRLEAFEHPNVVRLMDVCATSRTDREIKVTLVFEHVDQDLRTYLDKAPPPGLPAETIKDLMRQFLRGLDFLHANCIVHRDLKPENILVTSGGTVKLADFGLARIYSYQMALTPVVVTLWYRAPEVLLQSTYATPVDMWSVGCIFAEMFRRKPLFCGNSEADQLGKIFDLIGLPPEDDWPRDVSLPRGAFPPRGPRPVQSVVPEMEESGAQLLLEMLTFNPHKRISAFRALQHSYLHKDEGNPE
Sequence (P24385 whole entry partner): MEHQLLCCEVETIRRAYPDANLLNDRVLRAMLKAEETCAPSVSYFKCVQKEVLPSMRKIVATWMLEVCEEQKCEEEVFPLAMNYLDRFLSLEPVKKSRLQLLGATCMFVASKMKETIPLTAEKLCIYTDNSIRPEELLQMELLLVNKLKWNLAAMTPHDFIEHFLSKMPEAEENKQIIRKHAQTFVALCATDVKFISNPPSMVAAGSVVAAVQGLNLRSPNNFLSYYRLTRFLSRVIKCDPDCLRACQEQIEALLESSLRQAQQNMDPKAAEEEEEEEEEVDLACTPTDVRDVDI
Remember the convention: pIC50 equals -log10 of concentration in molar.

Examples from the recorded data:
molecule: CC(C)N1CCOc2c(Cl)cc(-c3nc(Nc4ccc(N5CCNCC5)c(F)c4)ncc3Cl)cc21
tgt: CDK4 (Homo sapiens (Human), UniProt P11802)
recorded value: 7.05

molecule: CC(C)N1CCOc2c(F)cc(-c3nc(Nc4ccc(N5CCN(C)CC5=O)cn4)ncc3F)cc21
tgt: CDK4 (Homo sapiens (Human), UniProt P11802)
recorded value: 8.60

molecule: CC1CN(c2ccc(Nc3ncc(F)c(-c4cc(F)c5c(c4)N(C(C)C)CCO5)n3)nc2)CCN1 (stereo not drawn)
tgt: CDK4 (Homo sapiens (Human), UniProt P11802)
recorded value: 8.35

Request: I'm curious: which pIC50 was measured for CC(C)N1CCOc2c(F)cc(-c3nc(Nc4ccc(S(N)(=O)=O)cc4)ncc3F)cc21 tested on CDK4 (Homo sapiens (Human), UniProt P11802)?
Response: 8.22

Request: I'm curious: which pIC50 was measured for Fc1cnc(Nc2ccc(N3CCCNCC3)cn2)nc1-c1cc(F)c2c(c1)N(C1CCCC1)CCO2 tested on CDK4 (Homo sapiens (Human), UniProt P11802)?
Response: 8.05

Request: I'm curious: which pIC50 was measured for CC(C)N1CCN(c2ccc(Nc3ncc(F)c(-c4cc(F)c5c(c4)N(C(C)C)CCO5)n3)cc2F)CC1 tested on CDK4 (Homo sapiens (Human), UniProt P11802)?
Response: 8.10

Request: I'm curious: which pIC50 was measured for COc1nc(Nc2ncc(F)c(-c3cc(F)c4c(c3)N(C(C)C)CCO4)n2)ccc1C1CCN(C)CC1 tested on CDK4 (Homo sapiens (Human), UniProt P11802)?
Response: 7.51

Request: I'm curious: which pIC50 was measured for CC(C)N1CCOc2c(F)cc(-c3nc(Nc4ccc5c(c4)C(=O)NCC5)ncc3F)cc21 tested on CDK4 (Homo sapiens (Human), UniProt P11802)?
Response: 7.92

###

Test system: HCT-116
Assay: Cancer cell proliferation assay, single agent
Type: cell-based
Settings: Homo sapiens, Treatment Duration 72 h, read-out: IC50 HCT116
reported metric: IC50 (nM)
// units = nM; emit number, no label

Request: I'm curious: which IC50 was measured for CC(C)N1CCOc2c(F)cc(-c3nc(Nc4ccc(N5CCNCC5)cn4)ncc3F)cc21 tested on HCT-116?
Response: 515

###

Values of pIC50 reported for UniProtKB Q00535 appear below.
Sequence (Q00535 whole entry): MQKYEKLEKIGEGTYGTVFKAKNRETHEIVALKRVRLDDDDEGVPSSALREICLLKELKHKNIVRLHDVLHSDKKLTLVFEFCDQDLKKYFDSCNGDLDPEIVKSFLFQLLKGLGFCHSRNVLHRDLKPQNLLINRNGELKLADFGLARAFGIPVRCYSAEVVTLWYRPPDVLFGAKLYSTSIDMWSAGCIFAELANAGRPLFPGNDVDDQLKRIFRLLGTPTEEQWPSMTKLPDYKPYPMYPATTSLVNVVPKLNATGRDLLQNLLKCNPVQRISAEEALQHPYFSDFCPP
Sequence (Q15078 99-307 partner): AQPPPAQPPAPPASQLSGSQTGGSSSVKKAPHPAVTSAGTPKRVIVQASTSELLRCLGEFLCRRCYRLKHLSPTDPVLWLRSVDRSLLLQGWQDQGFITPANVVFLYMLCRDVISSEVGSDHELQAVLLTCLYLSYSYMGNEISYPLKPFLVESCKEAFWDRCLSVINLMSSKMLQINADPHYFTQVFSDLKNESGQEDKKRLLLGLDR
Remember the convention: pIC50 equals -log10 of concentration in molar.

Examples from the recorded data:
smiles record: CC(C)N1CCOc2c(F)cc(-c3nc(Nc4ccc(C5CCN(C)CC5)nc4)ncc3F)cc21
tgt: UniProtKB Q00535
reported metric: pIC50
recorded value: 9.00
//
smiles record: CC(C)N1CCOc2c(F)cc(-c3nc(Nc4ccc(C5CCN(C)CC5)cn4)ncc3F)cc21
tgt: UniProtKB Q00535
reported metric: pIC50
recorded value: 7.57
//
smiles record: CC(C)N1CCOc2c(F)cc(-c3nc(Nc4ccn(C5CCNCC5)c(=O)c4)ncc3F)cc21
tgt: UniProtKB Q00535
reported metric: pIC50
recorded value: 8.11

Now, please, on to the next molecule.
Request: I'm curious: which pIC50 was measured for CC(C)N1CCOc2c(F)cc(-c3nc(Nc4ccc(N5CCC(N(C)C)CC5)cn4)ncc3F)cc21 tested on UniProtKB Q00535?
Response: 7.42
